- TGT: Enoyl-[acyl-carrier-protein] reductase [NADPH] FabI (Staphylococcus aureus (strain MRSA252))
- Sequence (Q6GI75 whole entry): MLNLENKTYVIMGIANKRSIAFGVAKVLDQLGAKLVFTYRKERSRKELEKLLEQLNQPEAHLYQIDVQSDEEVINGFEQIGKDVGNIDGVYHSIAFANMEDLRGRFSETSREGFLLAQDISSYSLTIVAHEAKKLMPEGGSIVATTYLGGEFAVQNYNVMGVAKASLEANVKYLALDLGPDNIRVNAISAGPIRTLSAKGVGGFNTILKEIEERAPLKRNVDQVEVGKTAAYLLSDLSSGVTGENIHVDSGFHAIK
- TEST DESCRIPTION: Enzyme Inhibition Assay
- STUDY CONDITIONS: pH 6.5; 30 °C
pIC50: −log10 of the molar value.
OBSERVABLE: pIC50

[I] COC(=O)Cn1c2c(c3ccccc31)CCN(C(=O)c1ccc(O)cc1)C2
[II] O=C(c1ccc(O)cc1)N1CCc2c(n(Cc3cccc(O)c3)c3ccccc23)C1
# min-compare on pIC50 between I and II Choose, then provide that item's label. I
(I: 5.01, II: 6.38)
